Could you please report measured glucose uptake for the items listed next?
Test system: L6 (Rattus norvegicus)
experimentalDetails: Glucose uptake in Rattus norvegicus (rat) L6 cells at 50 uM
A number alone suffices; assume %.

Ask: What value of glucose uptake has been recorded for this entry: N#CC(C#N)=Cc1ccc(OCCSc2nnc(-c3ccccc3Cl)o2)cc1
Reply: 26.6

Ask: What value of glucose uptake has been recorded for this entry: N#CC(C#N)=Cc1ccc(OCCSc2nnc(-c3cccc([N+](=O)[O-])c3)o2)cc1
Reply: 11.8

Ask: What value of glucose uptake has been recorded for this entry: COc1cccc(-c2nnc(SCCOc3ccc(C=C(C#N)C#N)cc3)o2)c1
Reply: 13.5

Ask: What value of glucose uptake has been recorded for this entry: Cc1ccc(-c2nnc(SCCOc3ccc(C=C(C#N)C#N)cc3)o2)cc1
Reply: 18.8

Ask: What value of glucose uptake has been recorded for this entry: COc1ccccc1-c1nnc(SCCOc2ccc(C=C(C#N)C#N)cc2)o1
Reply: 38.5

----------
systemName: Tyrosine-protein phosphatase non-receptor type 1 (Homo sapiens) (UniProt P18031)
Sequence (whole entry): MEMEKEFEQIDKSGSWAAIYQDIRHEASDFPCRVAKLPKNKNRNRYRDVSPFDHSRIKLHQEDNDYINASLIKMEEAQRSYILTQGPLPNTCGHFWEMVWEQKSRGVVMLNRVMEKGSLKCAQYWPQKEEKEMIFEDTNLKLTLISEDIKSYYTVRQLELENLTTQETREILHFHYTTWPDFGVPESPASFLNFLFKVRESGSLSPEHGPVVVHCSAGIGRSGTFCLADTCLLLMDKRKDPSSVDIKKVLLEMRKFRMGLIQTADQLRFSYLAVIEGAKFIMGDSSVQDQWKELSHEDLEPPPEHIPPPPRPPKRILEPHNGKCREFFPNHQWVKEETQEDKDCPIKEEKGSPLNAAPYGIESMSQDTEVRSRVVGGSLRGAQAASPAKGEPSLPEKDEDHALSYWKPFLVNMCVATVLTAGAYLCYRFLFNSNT
experimentalDetails: Inhibition of PTP1B (unknown origin) at 10 uM
Response key: true (1) means inhibition >= 40%; false (0) means inhibition < 40%.

Ask: Does the reported inhibition for N#CC(C#N)=Cc1ccc(OCCSc2nnc(-c3ccccc3Cl)o2)cc1 fall at or above the 40% mark?
Reply: false (0)

Ask: Does the reported inhibition for Cc1ccc(-c2nnc(SCCOc3ccc(C=C(C#N)C#N)cc3)o2)cc1 fall at or above the 40% mark?
Reply: true (1)

Ask: Does the reported inhibition for N#CC(C#N)=Cc1ccc(OCCSc2nnc(-c3ccccc3)o2)cc1 fall at or above the 40% mark?
Reply: true (1)

Ask: Does the reported inhibition for COc1ccccc1-c1nnc(SCCOc2ccc(C=C(C#N)C#N)cc2)o1 fall at or above the 40% mark?
Reply: true (1)

----------
systemName: Tyrosine-protein phosphatase non-receptor type 1 (Homo sapiens)
experimentalDetails: Inhibition of PTP1B (unknown origin) at 10 uM
Could you please report measured inhibition for the items listed next?
A number alone suffices; assume %.

Ask: What value of inhibition has been recorded for this entry: N#CC(C#N)=Cc1ccc(OCCSc2nnc(-c3ccc(F)cc3)o2)cc1
Reply: 30.4

Ask: What value of inhibition has been recorded for this entry: N#CC(C#N)=Cc1ccc(OCCSc2nnc(-c3ccc(Cl)cc3)o2)cc1
Reply: 34.3

Ask: What value of inhibition has been recorded for this entry: N#CC(C#N)=Cc1ccc(OCCSc2nnc(-c3cccc([N+](=O)[O-])c3)o2)cc1
Reply: 41.4

Values from ChEMBL document CHEMBL3045458
